Assay Details: Restrictive medium S. cerevisiae growth inhibition, OD615, pilot screen of yeast lifespan reduction project, restrictive growth control (AID 706);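 also: modified DeaD lifespan yeast strain shifted to restrictive glucose medium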
Condition Label: OD615, 48 h, at 10 µM, hits give high values
Hi there, I'd appreciate the recorded growth inhibition for every entry that follows.
Field: numeric (%). Do not append units.

Enquiry: // returns reported growth inhibition for input Cc1ccc(N(C(C)C(=O)O)S(=O)(=O)c2c(C)[nH]c(=O)[nH]c2=O)cc1 (centres undefined)
Return: 11.8

Enquiry: Return reported growth inhibition; argument: `NC(=O)c1ccsc1NC(=O)c1ccco1`
Return: 20.1

Enquiry: I am curious: what growth inhibition value has been reported for `CCCCn1c(=O)cc(N2CCOCC2)[nH]c1=O` ?
Return: -20.6

Enquiry: I would be grateful if you could share the reported growth inhibition for `Cc1coc2c(C)c3oc(=O)c4c(c3cc12)CCCC4` .
Return: -13.6

Enquiry: Recorded growth inhibition of `COc1ccc(-c2nc(CSCC(=O)N3CCC(C(N)=O)CC3)c(C)o2)cc1OC` , please.
Return: 9.12

Enquiry: Dear colleague, I am looking for the recorded growth inhibition of the following molecule: `CCOC(=O)C1CCN(c2cc(=O)n(Cc3ccc(F)cc3)c(=O)[nH]2)CC1`
Return: -17.4

Enquiry: Reported growth inhibition, molecule `O=C(CCS(=O)(=O)c1cccc2nonc12)NC1CCCCCC1` : ____
Return: -9.46

Enquiry: So what does the record say about growth inhibition for O=C(Cn1cnc2c(nnn2-c2ccccc2)c1=O)NCC1CCCO1 (centres undefined) ?
Return: 8.14

Enquiry: I am curious: what growth inhibition value has been reported for `Cn1c(/N=C/c2cccs2)nc2ccccc21` ?
Return: -5.94

Enquiry: // returns reported growth inhibition for input Cc1ccc(C2=CC(c3ccc(N(C)C)cc3)n3nnnc3N2)cc1 (centres undefined)
Return: 7.92

Enquiry: What value of measured growth inhibition is listed for `COc1ccccc1NC(=O)Cn1c(=O)n2nc(C)nc2c2ccccc21` ?
Return: -16.9

Enquiry: Entry `COc1ccccc1C(=O)n1nc(-c2cccnc2)nc1N` has what growth inhibition?
Return: -5.6

Enquiry: Any idea what growth inhibition was measured for CCC(C)NC(=O)CS(=O)Cc1nc(-c2cccc(OC)c2)oc1C (centres undefined) ?
Return: -1.45

Enquiry: May I ask what growth inhibition has been recorded for O=C(CN1CCN(Cc2ccccc2Cl)C1=O)NCC1CCCO1 (centres undefined) ?
Return: -0.62

Enquiry: Given `COc1cccc(NS(=O)(=O)c2cn(C)c(=O)n(C)c2=O)c1` , state its recorded growth inhibition.
Return: -3.64

Enquiry: Give its growth inhibition value. Item: CCOc1ccc(NC2c3ccccc3C(=O)N2c2ccc(Cl)cn2)cc1 (centres undefined)
Return: -15.6

Enquiry: Could you share which growth inhibition value was measured for `CCSc1nnc(NC(=O)c2ccccc2)s1` ?
Return: 0.02

Enquiry: Need growth inhibition, item `CCNC(=O)c1c(C)nc2ccccn12`
Return: -7.95

Enquiry: Suppose we examine the molecule `Cc1cc(C)n(-c2ncc(-c3ccccc3)nn2)n1` ; what growth inhibition value has been reported?
Return: 29.2

Enquiry: Requested field: growth inhibition. Item: `COc1ccc(C(=O)Oc2ccc3c(c2)OCO3)cc1OC`
Return: -4.45

Enquiry: Reported growth inhibition for `N#Cc1nc(COc2ccc(Br)cc2)oc1N1CCCCCC1` : what is it?
Return: 3.57

Enquiry: Quick one: growth inhibition of `c1ccc(CSc2nnc(-c3ccco3)n2Cc2ccco2)cc1` ?
Return: 0.405

Enquiry: Which growth inhibition value belongs to CC1Cc2nc(SCC(=O)Nc3nccs3)n(Cc3ccccc3)c(=O)c2S1 (centres undefined) ?
Return: 8.66

Enquiry: Requested read-out: growth inhibition. Entry: `Cc1ccc2c(c1)N(CCCC(=O)NCCCN1CCCC1=O)C(=O)CO2`
Return: -13.3

Enquiry: Which growth inhibition value belongs to `COCC(=O)Nc1cc(C)c2c(=O)oc3ccccc3c2n1` ?
Return: 5.79

Enquiry: Using the record for `O=S(=O)(c1ccc(N2CC=C(c3ccccc3)CC2)nc1)N1CCCC1` , report its growth inhibition.
Return: -12.5

Enquiry: Recorded growth inhibition for `O=C(CN1CCOc2ccccc21)N1CCC(Cc2ccccc2)CC1` , please?
Return: 21.2

Enquiry: Entry under review: `CCOC(=O)c1[nH]c(C)c(C(=O)N(CC)CC)c1C` . Reported growth inhibition?
Return: -5.69

Enquiry: Fill blank: measured growth inhibition of the molecule O=C(Nc1ncc(Br)s1)C(Cc1ccccc1)n1cccc1 (centres undefined) is ____.
Return: -13.6

Enquiry: // lookup growth inhibition for `COc1cc2[nH]c(=O)n(CCCCCC(=O)NCCCN3CCOCC3)c(=O)c2cc1OC`
Return: -24.8

Enquiry: # growth inhibition lookup, item CCCOc1ccc(C2c3c(oc4cc(C)c(C)cc4c3=O)C(=O)N2CCCN(C)C)cc1OCC (centres undefined)
Return: -3.15

Enquiry: What growth inhibition value was documented for this molecule, `COc1ccccc1N1CCN(C(=O)CCCCn2c(=O)[nH]c3ccsc3c2=O)CC1` ?
Return: 7.52

Enquiry: Can you look up the measured growth inhibition of CCCNC(=O)CS(=O)Cc1nc(-c2ccccc2C)oc1C (centres undefined) for me?
Return: -5.72

Enquiry: Would you kindly share the measured growth inhibition for `CCOC(=O)N1CCC(NC(=O)Cn2cc3c(n2)CCCCC3)CC1` ?
Return: 5.48

Enquiry: I am curious: what growth inhibition value has been reported for COc1ccc(C2CC(c3c(Cl)cccc3Cl)n3nc(N)nc3N2)cc1 (centres undefined) ?
Return: 5.1

Enquiry: What does the data say about its growth inhibition? Entry: CSc1nnc2c(n1)OC(c1ccc(C(=O)O)cc1)N(C(C)=O)c1ccccc1-2 (centres undefined)
Return: 13.2

Enquiry: Using the record for `COc1ccccc1N(CC(N)=O)S(=O)(=O)c1ccc(C)cc1` , report its growth inhibition.
Return: -2.73

Enquiry: Return reported growth inhibition; argument: CCOCCCNC(=O)C(NC(=O)c1cnccn1)c1ccc(OC)cc1 (centres undefined)
Return: -6.63

Enquiry: Query: growth inhibition; subject: Oc1c(C(c2cccc(F)c2)N2CCN(Cc3ccccc3)CC2)sc2ncnn12 (centres undefined)
Return: 3.16

Enquiry: Reported growth inhibition for `O=C(NCCn1ccc2ccccc21)c1ccc(S(=O)(=O)N2CCCCC2)cc1` : what is it?
Return: -22.4

Enquiry: Recorded growth inhibition of `CCOC(=O)N1CCC(NC(=O)CS(=O)(=O)Cc2nc(-c3ccc(C)cc3)oc2C)CC1` , please.
Return: -37.1

Enquiry: Which growth inhibition value is on record for `CCCCNc1ncnc2c1cnn2-c1ccc(C)cc1C` ?
Return: 9.48

Enquiry: For the molecule COc1ccc(C2CC(=O)N3CN(c4ccc(C)c(Cl)c4)CSC3=C2C#N)cc1 (centres undefined) , what growth inhibition is on record?
Return: 21.9

Enquiry: I am curious: what growth inhibition value has been reported for CC1CC(C)CN(S(=O)(=O)c2ccc(NC(=O)C3COc4ccccc4O3)cc2)C1 (centres undefined) ?
Return: -24.7
